# measurement target: p/CIP-EGFP fusion (nuclear receptor coactivator 3, mouse)
# protocol: compounds lowering mouse p/CIP (NCOA3) protein levels – fluorescence, F442A cells, EGFP fusion, primary screen (AID 1984)
# measurement setup: 16 h, at 10 µM, hits give high values
Screen size: about 290,000 compounds; about 35 (0.01%) were called active. This excerpt belongs to a sample that is enriched for actives.
Would you mind telling me the reported decrease of EGFP signal of each entry?
Give the quantity in %, number only.

Input: Identify the measured decrease of EGFP signal of O=C(O)c1ccccc1C(=O)NC1=NN(c2ccccc2)CC1 for p/CIP-EGFP fusion (nuclear receptor coactivator 3, mouse).
Output: 13.1

Input: Identify the measured decrease of EGFP signal of CCOc1ccc(S(=O)(=O)N2CCC(c3ccccc3)CC2)cc1C(=O)O for p/CIP-EGFP fusion (nuclear receptor coactivator 3, mouse).
Output: 2.8

Input: Identify the measured decrease of EGFP signal of CC(C)(C)C1CCc2c(sc3nc(SCC(N)=O)nc(N)c23)C1 (stereo not given) for p/CIP-EGFP fusion (nuclear receptor coactivator 3, mouse).
Output: -4.6

Input: Identify the measured decrease of EGFP signal of C=CCNC(=O)c1ccc2c3n(nc2c1)-c1ccc(C)cc1CO3 for p/CIP-EGFP fusion (nuclear receptor coactivator 3, mouse).
Output: -3.3

Input: Identify the measured decrease of EGFP signal of O=S(=O)([N-]c1nc2ccccc2nc1-[n+]1ccc(Cc2ccccc2)cc1)c1ccc(Br)s1 for p/CIP-EGFP fusion (nuclear receptor coactivator 3, mouse).
Output: -27.8

Input: Identify the measured decrease of EGFP signal of CCc1cccc(NC(=O)CCCN2C(=O)C(c3ccccc3)Oc3cccnc32)c1 (stereo not given) for p/CIP-EGFP fusion (nuclear receptor coactivator 3, mouse).
Output: 4.5

Input: Identify the measured decrease of EGFP signal of CSc1ccc(/C=C/C(=O)NC23CC4CC(CC(C4)C2)C3)cc1 for p/CIP-EGFP fusion (nuclear receptor coactivator 3, mouse).
Output: 0.4

Input: Identify the measured decrease of EGFP signal of CS(=O)(=O)N1CCN=C1SCc1ccc(F)cc1 for p/CIP-EGFP fusion (nuclear receptor coactivator 3, mouse).
Output: 10.9

Input: Identify the measured decrease of EGFP signal of CCCN(CCC)S(=O)(=O)c1ccc(C(=O)N2CC3CCC(CC3)C2)cc1 for p/CIP-EGFP fusion (nuclear receptor coactivator 3, mouse).
Output: -5.7

Input: Identify the measured decrease of EGFP signal of CC(=O)N1CCOc2ccc(S(=O)(=O)N3CCC(C(=O)Nc4ccccc4F)CC3)cc21 for p/CIP-EGFP fusion (nuclear receptor coactivator 3, mouse).
Output: 11.8

----------
# measurement target: p/CIP-EGFP fusion (nuclear receptor coactivator 3, mouse)
# protocol: compounds lowering mouse p/CIP (NCOA3) protein levels – fluorescence, F442A cells, EGFP fusion, primary screen (AID 1984)
# measurement setup: 16 h, at 10 µM, hits give high values
Screen size: about 290,000 compounds; about 35 (0.01%) were called active. This excerpt belongs to a sample that is enriched for actives.
assay readout: decrease of EGFP signal

Input: May I ask what decrease of EGFP signal has been recorded for Cc1ccc(N(Cc2cc(=O)[nH]c3ccccc23)C(=O)CCl)cc1 ?
Output: -8.8% (inactive)

Input: May I ask what decrease of EGFP signal has been recorded for CC(C)NC(=O)N1CCN(c2ccncc2S(=O)(=O)N2CCCCC2)CC1 ?
Output: 5.9% (inactive)

Input: May I ask what decrease of EGFP signal has been recorded for CC(C)CC(O)C1CCN(C(=O)CCc2nnc(-c3ccc4c(c3)OCO4)o2)CC1 (centres undefined) ?
Output: -14.9% (inactive)

Input: May I ask what decrease of EGFP signal has been recorded for Cc1c(S(=O)(=O)N2CC(C)CC(C)C2)c(=O)n(C)c(=O)n1C (centres undefined) ?
Output: 4.7% (inactive)
